experimentalProtocol: protein stability index of a GFP-peptide fusion (GPS, HEK-293T) (PSI 1-6); higher = more stable;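 further: 24-mer peptide tiles fused after GFP, lentivirally expressed, FACS-sorted into six equal bins by GFP/DsRed ratio, decoded by Illumina sequencing, PSI is the read-weighted mean bin number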
measurementParameters: treatment: MLN4924 1 uM, 8 h; c terminus: a fixed tail appended
Reported protein stability index values are given for each entry in this list.
Just the number, please, no unit after it.

Example cases with answers are listed next.
LLPTKSLVALKCTCCYFKFIIEYY [FBXO34] | 2.83
VVGWFVLFYKPGIVLLLALAKYLK [GULP1] | 2.37
FSSDKAKAGSSEWLAVDGLVSPSN [ATF4] | 4.08
IKEEENSEEELAAATTSKEQEPIG [MYBL2] | 5.72
CASPVTGPGSKRDAHFCAVCSDYA [ESR2] | 3.16
HSRVAKPHQREKIDKEIELHRILH [PLK2] | 3.44
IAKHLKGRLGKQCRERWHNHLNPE [MYBL2] | 2.23
GCWAWPLAGLSVGRSSLTACSLPL [PXN] | 2.15

Look at this sequence and give its reported protein stability index. AYTRYLGDLSGGQVLKKIAQKALD [HMOX1] 2.23

State the recorded protein stability index for this entry: VLEGPAPWGFRLQGGKDFNVPLSI [PDLIM7] 2.44

====

Each entry below lists one item and its recorded protein stability index value.
experimentalProtocol: protein stability index of a GFP-peptide fusion (GPS, HEK-293T) (PSI 1-6); higher = more stable
measurementParameters: treatment: DMSO; c terminus: a fixed tail appended
Response field accepts a number only; no unit should be typed.

Solved entries (count: 3):
VYLLGNPVVWWLNLLSIALYLLSG [POMT2] | 3.31
SRGTSQTPNASSPGNPTALANGTV [LPCAT4] | 4.73
SYSLSRKKIVHYTCFDQRKRANAA [CDC14A] | 2.88

Param item = FRFIPVLFPNAKKEHVPTWLQNTH [TRAF3IP2] ; retrieve measured protein stability index. 2.3

Please report the recorded protein stability index for ALQAAAHASVDIKDVLDFYKQWKE [SMG5] . 3.19

I have this sequence here, IVRRRSRDVPESPQHAADTPKSGE [YJU2B] , and I need its recorded protein stability index. 5.06

# protein stability index lookup, item KNDVFICGGYNGEVILGDIWKLNL [KLHDC10] 2.6

====

The following sequences are listed with their measured protein stability index values.
experimentalProtocol: protein stability index of a GFP-peptide fusion (GPS, HEK-293T) (PSI 1-6); higher = more stable
measurementParameters: treatment: DMSO; c terminus: a fixed tail appended

Worked examples follow.
MVGGLKRKHSDLEEEEERWEWSPA [SERTAD3] | 4.23
NINDRIKELGTLIPKSSDPEMRWN [TFE3] | 3.58
ATKSHVDKVIMKLGKTNAKAVSEM [DYNC2LI1] | 3.57

What value of measured protein stability index is listed for LHSEFDEQHGKKVPTVSRPYSFIE [SEC22B] ? 4.04

Entry under review: TSIEPSKSSIIPFRALKRPLQFLG [ZER1] . Reported protein stability index? 2.42

Quick one: protein stability index for KDILGFAVMFFIVFFAYAQLGYLL [PKD2L1] ? 2.81

If you can, please state the reported protein stability index value of AGAGWWVGAAYASLRRRGASAAAR [TRIM14] . 2.88

protein stability index for QLKACTNFDDILNVCDDYDVTCNE [KCNG1] ? 4.42

What value of measured protein stability index is listed for VRTAAIKAMLQLHERGLKLHQTIY [INTS4] ? 2.58

I have this sequence here, YQSGGRLKRPVNVPFDIFTEEVKF [KCNA4] , and I need its recorded protein stability index. 2.42

Given the sequence EVNSRCYQPEPFACGIEHCSVHYV [FBXO34] , what is its reported protein stability index? 2.58

Need protein stability index, item QLELVILQSEPHRAGVQWKFAGSF [KCNK9] 2.7

I would be grateful if you could share the reported protein stability index for AIPITELTKSQVQDKPYKCTDCGK [ZNF8] . 4.25

====

experimentalProtocol: protein stability index of a GFP-peptide fusion (GPS, HEK-293T) (PSI 1-6); higher = more stable
measurementParameters: treatment: DMSO; c terminus: a fixed tail appended
testReadout: protein stability index
Please state the value as a number alone, without comment.

INRLVGLQNTYMGYLDYRKKAIKD [GLT8D2] | 2.7

Endpoint output: protein stability index of SAWSNIQEAPLQDDSCLNNDIPHS [FAN1] . Value? 4.98

GET /values?readout=protein stability index&item= TISFICRELDAISTNEEEKEENEA [PRIM1] 5.16

====

experimentalProtocol: protein stability index of a GFP-peptide fusion (GPS, HEK-293T) (PSI 1-6); higher = more stable
measurementParameters: treatment: MLN4924 1 uM, 8 h; c terminus: a fixed tail appended
testReadout: protein stability index
API note: the answer field is a bare number with no unit suffix.

Please review the following examples before continuing.
RGLVGVGEASYSTIAPTLIADLFV [SPNS1] | 2.13
RREVERKQKGSEENLDEAREQKEK [ADD1] | 4.91
PTELWPQEAVPLGLGLEDADWTQG [TEX19] | 4.59
SVKKQGETVADVRTLPNASTVDNI [MLH1] | 5.25
SLVGNLGISGTTTKKGDLQWNAGE [SNAP91] | 3.62
ETSVVAQFGIKDVFDNAIRAALIS [RHOBTB2] | 2.38

Could you tell me which protein stability index is on file for GTQPRATKHKCRQLTKASLKPRGC [SPACA9] ? 3.95

Entry LKKEHPGARDGIRYLEAEFKKGNR [SMG5] has what protein stability index? 4.29

Entry QLYMEQFTKANFWYQPSFHGVDLS [CARM1] has what protein stability index? 2.48

Consider the sequence DHYAAIKKAWDDLKKYLEPRCPRM [FBXO3] and give its measured protein stability index. 2.69

Requested field: protein stability index. Item: VLAEGDNASRSLYPDAEDPQLGLD [PSD2] 5.34

Could you tell me which protein stability index is on file for LIFFLFIGVILFSSAVYFAEADEP [KCNA4] ? 2.38

Recorded protein stability index of SLNALEDQDLDALMADLVADISEA [APBB1IP] , please. 4.36

====

experimentalProtocol: protein stability index of a GFP-peptide fusion (GPS, HEK-293T) (PSI 1-6); higher = more stable
measurementParameters: treatment: DMSO; c terminus: native
Given measured protein stability index, output Criterion met if it is greater than or equal to 4 and Criterion not met if not.

FSEETEKKFEHFSGLLNNQLSPQ [LOXL2] | Criterion not met
QALLDVKNIAHQNKFGEDMPHPH [HDAC6] | Criterion met
DMKVNPIQGLASKWDYEKNEWKK [COX4I1] | Criterion met

API: above_or_equal(metric=protein stability index, cutoff=4) for item ELENLAAMDLELQKIAEKFSQRG [CHGB] Criterion not met

Identify whether the reported protein stability index of the following sequence is 4 or greater: LTASRQSFRMAMGNPSEFFVDVM [DVL3] Criterion not met

Determine whether this sequence has protein stability index no lower than 4: YKKGIIRKPDISQRLVYQFVHPI [SPDEF] Criterion not met

====

experimentalProtocol: protein stability index of a GFP-peptide fusion (GPS, HEK-293T) (PSI 1-6); higher = more stable
measurementParameters: treatment: MLN4924 1 uM, 8 h; c terminus: a fixed tail appended
Reported protein stability index values are given for each entry in this list.
Reply with the value as a number alone.

MQNSNECKRNFVAVYDGSSSVEDL [NETO1] | 4.68
SELEDLTEPEQRELKTKLTKLEAE [TPD52L3] | 5.6
PVGFGRRTDPNGDYIRRYLPVLRG [CRY1] | 3.17
RTLASGRLLSYRGERVAARGYWGD [DNAAF3] | 3.08
VAIFIMSLNKRHSSGDGNSKLKSE [MFSD9] | 2.16
GHCLLDKPEAPLHLPVTFPGKDYD [ADAMTS4] | 4.4
YQELMSLKLALDMEIATYRKLLES [KRT71] | 2.16
LPPCAVRNLQDLARIYIRRTLRNF [PCMTD1] | 2.04
VDYTGQAKAQVRKAVQYEEKNPCR [STX11] | 4.59
AEFMRNFQKGQVTRDGFKLVMASL [HMOX1] | 2.26

Would you kindly share the measured protein stability index for LHPRPDWEHSAPQRLPRSAPPGSL [PCDHGC5] ? 4.75

Item under review: TIPLFVQLLYSPIENIQRVAAGVL [CTNNB1] . Reported protein stability index? 2.71

Looking for the measured protein stability index of GGLGGGYGGGLGGGFGGGFAGGFV [KRT13] , can you help? 2.1

Request the reported protein stability index associated with KNKMMVCQVGGIEALVRTVLRAGD [CTNNB1] 2.22

Tell me the measured protein stability index of SGKESPPVSDTPDEGDEPMPIPED [IKZF1] , please. 5.71

Requested field: protein stability index. Item: RPIIASISSGVVSIWAQNQVENWS [RBBP5] 2.26

Fill in: protein stability index of LLEESDGEGEPGQGEGPEAGDAEV [NOP53] is ___ 5.61

# input sequence: PNPGFSMLDFLSERPWIKRMIFKL [APMAP] ; wanted: its protein stability index 2.36

What value of protein stability index has been recorded for this entry: REIMEKFGKQPVSLPARRLKLRGR [CPXM2] 3.65

Can you share its protein stability index? I mean this sequence: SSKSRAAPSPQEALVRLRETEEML [CHMP4C] 3.45
